This collection of values is drawn from patent US11130780B2.

- experimental-system: hepsin (Homo sapiens, UniProt P05981)
- Construct: purchased R&D Systems 4776-SE-010
- Sequence (P05981 163-417 limits assumed): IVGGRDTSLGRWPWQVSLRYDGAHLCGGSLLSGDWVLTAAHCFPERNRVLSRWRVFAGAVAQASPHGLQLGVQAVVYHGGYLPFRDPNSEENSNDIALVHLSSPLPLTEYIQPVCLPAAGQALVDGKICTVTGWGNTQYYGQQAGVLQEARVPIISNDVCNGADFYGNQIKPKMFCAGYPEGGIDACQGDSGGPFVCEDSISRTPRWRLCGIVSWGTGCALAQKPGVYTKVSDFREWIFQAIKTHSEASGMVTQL
- Sequence (P05981 45-162 partner limits assumed): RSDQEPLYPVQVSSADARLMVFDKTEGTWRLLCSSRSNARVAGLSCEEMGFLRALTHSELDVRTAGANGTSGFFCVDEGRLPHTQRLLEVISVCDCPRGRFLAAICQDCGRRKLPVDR
- experimental-details: Fluorescent kinetic enzyme inhibitor assay of hepsin
- Assay type: biochemical
- condition-description: Table 9.1; Fluorogenic Assay; read-out: Hepsin Ki
quantity-measured: Ki (µM)
I only need the number, in µM, no unit after it.

Quick note, Ki for N=C(N)c1cccc(C[C@H](NS(=O)(=O)c2ccc3ccccc3c2)C(=O)N2CCN(C(=O)NCc3ccc(Br)cc3)CC2)c1 [Compound 25a] landed at 0.048

Quick note, Ki for `N=C(N)c1cccc(C[C@H](NS(=O)(=O)c2ccc3ccccc3c2)C(=O)N2CCC(c3ccccc3)CC2)c1` landed at 3.28

Quick note, Ki for N=C(N)c1cccc(C[C@H](NS(=O)(=O)c2ccc3ccccc3c2)C(=O)N2CCN(C(=O)c3csc4ccccc34)CC2)c1 [Compound 25e] landed at 3.75

Quick note, Ki for N=C(N)c1cccc(C[C@H](NS(=O)(=O)c2ccc3ccccc3c2)C(=O)N2CCN(c3ccccc3)CC2)c1 [Compound 25g] landed at 7

Quick note, Ki for Cc1ccc(S(=O)(=O)N[C@@H](Cc2cccc(C(=N)N)c2)C(=O)N2CCC(c3ccccc3)CC2)cc1 [Compound 25b] landed at 4.8

Quick note, Ki for Cc1ccc(S(=O)(=O)N[C@@H](Cc2cccc(C(=N)N)c2)C(=O)N2CCN(C(=O)OCc3ccccc3)CC2)cc1 [Compound 25h] landed at 2.4

Quick note, Ki for `CC(C)c1cc(C(C)C)c(S(=O)(=O)N[C@@H](Cc2cccc(C(=N)N)c2)C(=O)N2CCN(c3ccccc3)CC2)c(C(C)C)c1` landed at 7.4

* * *

- experimental-system: HGFA (Homo sapiens)
- Construct: His6 tag (N); seven amino acid spacer and seven amino acid TEV cleavage site (N); Honey Bee melittin signal peptide (N); made in house; host or cells: High 5 insect cells (baculovirus; virus raised in Sf9)
- Sequence (Q04756 373-655): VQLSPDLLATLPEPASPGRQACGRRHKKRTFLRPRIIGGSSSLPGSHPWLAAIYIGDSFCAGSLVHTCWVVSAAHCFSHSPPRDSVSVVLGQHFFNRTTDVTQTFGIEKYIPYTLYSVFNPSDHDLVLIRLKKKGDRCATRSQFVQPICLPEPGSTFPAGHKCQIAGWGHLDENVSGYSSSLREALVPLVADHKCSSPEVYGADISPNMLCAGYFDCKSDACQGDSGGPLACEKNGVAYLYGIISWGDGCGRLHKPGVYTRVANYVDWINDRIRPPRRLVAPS
- experimental-details: Fluorescent kinetic enzyme inhibitor assay of HGFA
- Format: biochemical
- condition-description: Table 6.1; Fluorogenic Assay; read-out: HGFA Ki
Starred links: 1 amine or outer side, 2 acyl side, 3 side chain; linkers in the order of their positions; H or OH if unused. Non-standard residues stand in square brackets, D forms with d. Residues, ends and D or L forms follow the SMILES beside them. X1 = N=C(N)NCCC[C@H](N[*:1])C(=O)c1nc2ccc(C(=O)[*:2])cc2s1
quantity-measured: pKi
Field pKi (float): negative decimal logarithm of the concentration in molar.

Some solved cases for reference:
molecule | pKi
CC(=O)N[C@@H](CO)C(=O)N[C@@H](CCCCN)C(=O)N[C@@H](CC(C)C)C(=O)N[C@@H](CCCNC(=N)N)C(=O)c1nc2ccc(C(=O)Nc3ccncc3)cc2s1 | 7.50
CC(=O)N[C@@H](CO)C(=O)N[C@@H](CCCCN)C(=O)N[C@@H](CC(C)C)C(=O)N[C@@H](CCCNC(=N)N)C(=O)c1nc2ccccc2s1 [Compound 7053, Ac-SKLR(SEQ ID NO: 10)-Kbt] | 7.48
CC(=O)N[C@@H](CCCCN)C(=O)N[C@@H](CCC(N)=O)C(=O)N[C@@H](CC(C)C)C(=O)N[C@@H](CCCNC(=N)N)C(=O)c1nc2ccc(C(=O)N[C@H](C(N)=O)C(C)C)cc2s1 [Compound 7055, Ac-KQLR(SEQ ID NO: 1)-Kbt-Val—NH2] (Ac-KQL[X1]V-NH2) | 7.92
N=C(N)NCCC[C@H](NC(=O)[C@H](Cc1cnc[nH]1)NC(=O)OCC1c2ccccc2-c2ccccc21)C(=O)c1nc2ccccc2s1 | 5.20
CC(C)C[C@H](NC(=O)[C@H](Cc1c[nH]c2ccccc12)NC(=O)[C@@H](N)Cc1cncn1COCc1ccccc1)C(=O)N[C@@H](CCCNC(=N)N)C(=O)c1nc2ccccc2s1 | 5.43
CC(C)C[C@H](NC(=O)[C@H](CCCNC(=N)N)NC(=O)[C@H](CCCCN)NC(=O)CCCCC[N+]1=C(/C=C/C=C/C=C2/N(C)c3ccc4ccccc4c3C2(C)C)C(C)(C)c2c1ccc1ccccc21)C(=O)N[C@@H](CCCNC(=N)N)C(=O)CCl [Compound 1179, Cy5.5-KRLR(SEQ ID NO: 8)-cmk] | 7.47
N=C(N)NCCC[C@H](NC(=O)[C@H](Cc1ccccc1)NC(=O)[C@H](N)Cc1c[nH]c2ccccc12)C(=O)c1nc2ccc(C(=O)O)cc2s1 | 6.01

Read the next record carefully.
Quick note, pKi for `CC(C)C[C@H](NC(=O)OCC1c2ccccc2-c2ccccc21)C(=O)N[C@@H](CCCNC(=N)N)C(=O)c1nc2ccccc2s1` landed at 6.35
